- Experiment: Cell viability of A3.01 cells
- Assay type: cell-based
- Experimental context: human
Reported metric: CC50 at 3 days (µM)
Response body: numeric value in µM, unit text excluded.

C[C@@H]1CCO[C@H]2Cn3cc(C(=O)NCc4ccc(F)cc4F)c(=O)c(O)c3C(=O)N12 [DTG, dolutegravir, reference compound]
7.67
Cc1[nH]c2ccc(-c3nnc(SCC(=O)N4CCCCC4)o3)cc2c1C
56.1

Moving on to another compound below.
Record request: CC50 at 3 days value, item Cc1[nH]c2ccc(-c3nnc(SCC(=O)N4CCCC4)o3)cc2c1C
47.6

----------
- System: PI-resistant HIV-1 strain 11800
- Experiment: microbe, parasite or virus in culture
- Format: cell-based
- Experimental context: Human immunodeficiency virus 1, PBMC
Form field: pEC50 (one value per entry).
Conceptually, pEC50 converts a concentration in mol/L into minus its log10.

The cases that follow already have their pEC50 on record.
Cc1[nH]c2ccc(-c3nnc(SCC(=O)N4CCCC4)o3)cc2c1C
6.09
CC(C)CN(C[C@@H](O)[C@H](Cc1ccccc1)NC(=O)O[C@H]1CO[C@H]2OCC[C@H]21)S(=O)(=O)c1ccc(N)cc1
6.82

Record request: pEC50 value, item Cc1[nH]c2ccc(-c3nnc(SCC(=O)N4CCCCC4)o3)cc2c1C
6.27

----------
- Test system: NRTI-resistant HIV-1 strain 7396
- Experiment: microbe, parasite or virus in culture
- Format: cell-based
- Experimental context: Human immunodeficiency virus 1, TZM-bl
Reported metric: EC50 (µM)
Response body: numeric value in µM, unit text excluded.

Nc1ccn([C@@H]2CS[C@H](CO)O2)c(=O)n1
3.64

Record request: EC50 value, item Cc1[nH]c2ccc(-c3nnc(SCC(=O)N4CCCCC4)o3)cc2c1C
0.07

Record request: EC50 value, item Cc1cn([C@H]2C[C@H](N=[N+]=[N-])[C@@H](CO)O2)c(=O)[nH]c1=O
16.4

Record request: EC50 value, item Nc1nc(NC2CC2)c2ncn([C@H]3C=C[C@@H](CO)C3)c2n1
22.4

Record request: EC50 value, item Cc1[nH]c2ccc(-c3nnc(SCC(=O)N4CCCC4)o3)cc2c1C
0.15

----------
- Tested on: HIV-1NL4-3
- Experiment: HIV-1 replication in PBMCs (p24 […])
- Type: cell-based
Reported metric: SI (CC50/EC50)
Number, no unit, nothing else.

The cases that follow already have their SI (CC50/EC50) on record.
Cc1[nH]c2ccc(-c3nnc(SCC(=O)N4CCCC4)o3)cc2c1C
282.81
Cc1[nH]c2ccc(-c3nnc(SCC(=O)N4CCCCC4)o3)cc2c1C
315.14

Moving on to another compound below.
Record request: SI (CC50/EC50) value, item CC(C)[C@]12O[C@H]1[C@@H]1O[C@]13[C@]1(O[C@H]1C[C@H]1C4=C(CC[C@@]13C)C(=O)OC4)[C@@H]2O [triptolide, reference compound]
11.23

----------
- Experiment: Cell viability of TZM-bl cells (PrestoBlue)
- Format: cell-based
- Experimental context: human; TZM-bl cells, absence of HIV-1 infection; mean ± SD; read-out: CC50
Reported metric: CC50 at 48 h (µM)
Response body: numeric value in µM, unit text excluded.

CC(C)[C@]12O[C@H]1[C@@H]1O[C@]13[C@]1(O[C@H]1C[C@H]1C4=C(CC[C@@]13C)C(=O)OC4)[C@@H]2O [triptolide, reference compound]
0.02

Moving on to another compound below.
Record request: CC50 at 48 h value, item CC[C@H](CO)Nc1nc(NCc2ccccc2)c2ncn(C(C)C)c2n1 [seliciclib, reference compound]
39.2
